test: NCI Yeast Anticancer Drug Screen. Data for the sgs1 mgt1 strain (AID 161); conditions: S. cerevisiae sgs1 mgt1 strain, at 50.0 µM
Compounds without any hit were thinned out: in the full panel of roughly 79,000, 15% have a hit. Calls of active or inactive are those of the source. Rule as the data show it: active = growth inhibition above about 70%; inactive = the rest.
Possible outcomes: active, inactive

{"columns": ["compound", "assigned.category"],
 "data": [
  ["O=C(O)C1CC2CC2C1 (stereo not drawn)", "inactive"],
  ["CCCCCCCc1cc(=O)[nH]c(=S)[nH]1", "inactive"],
  ["CCCCC1(CC)COC2(CCCC2)OC1", "inactive"],
  ["O=C(c1ccc(Cl)cc1)C(C(c1ccccc1[N+](=O)[O-])N1CCCCC1)N1CCCCC1 (stereo not drawn)", "inactive"],
  ["CC(=O)CC(=O)c1ccc(Cl)cc1", "inactive"],
  ["COc1ccc(Cc2ccc(OC)c3ccccc23)c2ccccc12", "inactive"],
  ["C=C1CCCCCCCCC/C=C/1SCCCSC", "inactive"],
  ["O=C(O)CNC(=S)SCc1ccccc1", "inactive"],
  ["CCOC(=O)c1ccc(C(=N)N)cc1", "inactive"],
  ["CCN(CC)C(=O)c1cc2c(cc1[N+](=O)[O-])OCO2", "inactive"],
  ["c1ccc(C2(c3ccccc3)CC([P+](c3ccccc3)(c3ccccc3)c3ccccc3)N=N2)cc1 (stereo not drawn)", "active"],
  ["CCN(CC)CCOC(=O)Cc1ccc2c(=O)cc(-c3ccc(C)cc3)oc2c1", "inactive"],
  ["O=C(OCCN=c1c2ccccc2ccc2ccccc12)c1cc([N+](=O)[O-])cc([N+](=O)[O-])c1", "inactive"],
  ["O=[N+]([O-])C1C=Nc2ccccc2N=C1", "inactive"],
  ["O=C1CC2(CC(=O)N1CCc1c[nH]c3ccccc13)OCCO2", "inactive"],
  ["CCCCCCCCCCCCCCCCC[CH2][Sn]([Cl])([CH2]CCCCCCCCCCCCCCCCC)[CH2]CCCCCCCCCCCCCCCCC", "inactive"],
  ["CC(=O)c1cc2c(cc1C)CCCC2(C)C", "inactive"],
  ["CC(=O)NNc1ncc(C(=O)/C=C/c2ccccc2C)s1", "inactive"],
  ["Cc1cn(C2CC3[O][Sn]([c]4ccccc4)([c]4ccccc4)[O]CC3O2)c(=O)[nH]c1=O (stereo not drawn)", "inactive"],
  ["CC(O)CCNC(c1ccccc1)C(O)c1ccccc1 (stereo not drawn)", "inactive"],
  ["CCN(CC)CCN(N)CCN(CC)CC", "inactive"],
  ["COC(=O)C(N)Cc1ccc(OCc2ccccc2)cc1 (stereo not drawn)", "inactive"],
  ["Cc1ccc(NC(=O)CCc2cc(C(C)(C)C)nc(=S)[nH]2)cc1C", "inactive"],
  ["Cc1c(/C=C\\C(=O)c2ccccc2)c2ccccc2n1C", "inactive"],
  ["S=C(Nc1ccccc1)Nc1ccccc1S", "inactive"],
  ["Clc1ccccc1-c1nc(-c2ccncc2)no1", "inactive"],
  ["CCOC(=O)C(C)Oc1ccc(Cl)cc1 (stereo not drawn)", "inactive"],
  ["CCOC(=O)/C(=C\\c1ccccc1Cl)C(C)=O", "active"],
  ["COc1ccccc1NC(=O)NCCCCCCNC(=O)Nc1ccccc1OC", "inactive"],
  ["CC1CN(C(=S)Nc2cccc3ccccc23)CC(C)O1 (stereo not drawn)", "inactive"],
  ["N#Cc1ccc(OC(=O)Nc2ccccc2C(F)(F)F)cc1", "inactive"],
  ["Cc1cccc(-n2cccc2)c1", "inactive"],
  ["CCSCN1CCN(CSCC)CC1", "inactive"],
  ["Brc1ccccc1-c1nc2ccccc2[nH]1", "inactive"],
  ["COc1ccc(Cl)cc1C(O)CN1CCCCC1 (stereo not drawn)", "inactive"],
  ["Cc1c(C(=O)CSc2nc3ccccc3c(=O)n2-c2ccccc2)c(=O)n(-c2ccccc2)n1C", "inactive"],
  ["Cc1cc(Cl)ccc1OC(=O)NC1CCCCC1", "inactive"],
  ["COC(=O)C(Cc1cn(C(C)=O)c2ccccc12)P(=O)(OC)OC (stereo not drawn)", "inactive"]
]}
